assay.method.text: Maximum tolerable dose (MTD) of free and liposomal vinorelbine
Assay type: in vivo, nude and ICR mice
measurement.conditions: NCr nu/nu and ICR, mouse, in vivo, intravenous; q7dx3 dose schedule; estimated; read-out: maximum tolerated dose (MTD)
measure: MTD

1) CCC1=C[C@@H]2CN(C1)Cc1c([nH]c3ccccc13)[C@@](C(=O)OC)(c1cc3c(cc1OC)N(C)[C@H]1[C@@](O)(C(=O)OC)[C@H](OC(C)=O)[C@]4(CC)C=CCN5CC[C@]31[C@@H]54)C2 [VRL, 5′-noranhydrovinblastine] | 25 to 30 mg/kg
